Record type: log10 IC50 measurement. Applies to: UniProt Q99500
measure: log10 IC50 (log10 of the value in nM)

INSERT INTO results (molecule, subject_of_test, measure, observed) VALUES
  ('C[C@](N)(CO)C(=O)Nc1ccc(OCCc2ccc(-c3ccncc3)cc2)cc1', 'UniProt Q99500', 'log10 IC50', 3.51),
  ('CC(C)Oc1cccc(-c2ccc(NC(=O)[C@@](C)(N)CO)cc2)c1', 'UniProt Q99500', 'log10 IC50', 3.30),
  ('CCCCCCCCc1ccc(CCC2(N)COP(=O)(O)OC2)cc1 (stereo not drawn)', 'UniProt Q99500', 'log10 IC50', 2.54),
  ('C[C@](N)(CO)C(=O)Nc1ccc(Oc2ccc(F)cc2)cc1', 'UniProt Q99500', 'log10 IC50', 2.34),
  ('CCCCOc1ccc(Oc2ccc(NC(=O)[C@@](C)(N)CO)cc2)cc1', 'UniProt Q99500', 'log10 IC50', 3.40),
  ('CCc1ccc(Oc2ccc(NC(=O)[C@@](C)(N)CO)cc2)cc1', 'UniProt Q99500', 'log10 IC50', 3.08),
  ('C[C@](N)(CO)C(=O)Nc1ccc(OCc2ccc(-c3ccccc3)cc2)cc1', 'UniProt Q99500', 'log10 IC50', 2.45),
  ('CC(N)(CO)C(=O)Nc1ccc(OCCCCc2ccc(C(F)(F)F)cc2)cc1 (stereo not drawn)', 'UniProt Q99500', 'log10 IC50', 3.02);

====

Molecular target: S1P1 receptor (Homo sapiens, UniProt P21453)
Sequence (P21453 whole entry): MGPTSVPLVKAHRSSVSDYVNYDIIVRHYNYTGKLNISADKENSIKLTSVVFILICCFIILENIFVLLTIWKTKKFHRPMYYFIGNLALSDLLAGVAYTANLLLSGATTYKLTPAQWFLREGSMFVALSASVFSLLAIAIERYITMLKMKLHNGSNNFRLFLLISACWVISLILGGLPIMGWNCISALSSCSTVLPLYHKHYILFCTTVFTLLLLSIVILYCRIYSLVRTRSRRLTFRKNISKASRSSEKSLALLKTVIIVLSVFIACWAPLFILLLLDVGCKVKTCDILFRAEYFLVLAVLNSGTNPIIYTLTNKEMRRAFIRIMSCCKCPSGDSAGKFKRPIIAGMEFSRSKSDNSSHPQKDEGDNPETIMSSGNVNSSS
pIC50: −log10 of the molar value.
# label = bin(measured pIC50), where bins are 0 = under 7, 1 = from 7 up to 8, 2 = 8 and over

INSERT INTO measurements (molecule, class_assignment) VALUES
  ('C[C@](N)(CO)C(=O)Nc1ccc(OCCc2ccc(-c3ccoc3)cc2)cc1', 2),
  ('C[C@](N)(CO)C(=O)Nc1ccc(OCCc2ccc(-c3ccc(Cl)cc3)cc2)cc1', 0),
  ('CCCOc1cccc(-c2ccc(NC(=O)[C@@](C)(N)CO)cc2)c1', 0),
  ('CC(COc1ccc(NC(=O)[C@@](C)(N)CO)cc1)c1ccc(-c2ccccc2)c(F)c1 (stereo partly drawn)', 0),
  ('CCc1ccc(OC[C@](C)(N)C(=O)Nc2ccc(Oc3ccc(CC)cc3)cc2)cc1', 0),
  ('CCCCOc1ccc(Oc2ccc(NC(=O)[C@@](C)(N)CO)cc2)cc1', 1),
  ('CCCCCCCN(C)C(=O)c1ccc(NC(=O)[C@@H](N)[C@@H](C)O)cc1', 0),
  ('CCOc1ccc(-c2ccc(CCOc3ccc(NC(=O)[C@@](C)(N)CO)cc3)cc2)cc1', 1),
  ('C[C@](N)(CO)C(=O)Nc1ccc(-c2cccc(OCc3ccccc3)c2)cc1', 0),
  ('CCCCCNC(=O)c1ccc(NC(=O)[C@@H](N)[C@@H](C)O)cc1', 2),
  ('C[C@](N)(CO)C(=O)Nc1ccc(OCc2ccc(-c3ccccc3)cc2)cc1', 2),
  ('C[C@](N)(CO)C(=O)Nc1ccc(Oc2ccc(Cl)cc2)cc1', 0),
  ('CCCCc1ccc(Oc2ccc(NC(=O)[C@@](C)(N)CO)cc2)cc1', 0),
  ('CCCCCCCc1ccc(C(=O)N[C@@H](C)CO)cc1', 1),
  ('C[C@](N)(CO)C(=O)Nc1ccc(Oc2ccc(F)cc2)cc1', 2),
  ('C[C@](N)(CO)c1ncc(-c2ccc(OCCc3ccc(-c4ccccc4)cc3)cc2)[nH]1', 0),
  ('CCCCCCNC(=O)c1ccc(NC(=O)[C@@H](N)[C@@H](C)O)cc1', 0),
  ('CC(C)c1ccc(-c2ccc(CCOc3ccc(NC(=O)[C@@](C)(N)CO)cc3)cc2)cc1', 2),
  ('CCCCCCCCc1ccc(OC2CN[C@H](CO)C2)cc1 (stereo partly drawn)', 0);

====

pIC50: −log10 of the molar value.
Record type: pIC50 measurement. Applies to: S1P3 receptor (Homo sapiens, UniProt Q99500)
measure: pIC50

INSERT INTO measurements (molecule, censoring_sign, observed) VALUES
  ('C[C@](N)(CO)C(=O)Nc1ccc(OCCc2cccc(-c3ccccc3)c2)cc1', '<', 5.00),
  ('CCCCCCCc1ccc(C(=O)N[C@@H](C)CO)cc1', '=', 7.23),
  ('C[C@](N)(CO)C(=O)Nc1ccc(Oc2ccc(Cl)cc2)cc1', '<', 5.00),
  ('CCc1ccc(-c2ccc(CCOc3ccc(NC(=O)[C@@](C)(N)CO)cc3)cc2)cc1', '=', 5.30),
  ('C[C@](N)(CO)C(=O)Nc1ccc(OCCc2ccc(-c3ccc(Cl)cc3)cc2)cc1', '=', 5.10),
  ('CCCCc1ccc(Oc2ccc(NC(=O)[C@@](C)(N)CO)cc2)cc1', '<', 5.00),
  ('CC(C)c1ccc(-c2ccc(CCOc3ccc(NC(=O)[C@@](C)(N)CO)cc3)cc2)cc1', '=', 5.30),
  ('CC(COc1ccc(NC(=O)[C@@](C)(N)CO)cc1)c1ccc(-c2ccccc2)c(F)c1 (stereo partly shown)', '<', 6.00),
  ('C[C@](N)(CO)c1ncc(-c2ccc(OCCc3ccc(-c4ccccc4)cc3)cc2)[nH]1', '<', 5.00),
  ('COc1ccc(CCCCOc2ccc(NC(=O)[C@@](C)(N)COP(=O)(O)O)cc2)cc1', '=', 5.67);

====

Record type: IC50 measurement. Applies to: S1P1 receptor (Homo sapiens)
measure: IC50 (µM)

INSERT INTO results (compound, observed) VALUES
  ('CC(N)(CO)C(=O)Nc1ccc(OCCCCc2ccc(C(F)(F)F)cc2)cc1 (centres unmarked)', 0.012),
  ('CCc1ccc(Oc2ccc(NC(=O)[C@@](C)(N)CO)cc2)cc1', 0.114),
  ('COc1cccc(-c2ccc(NC(=O)[C@@](C)(N)CO)cc2)c1', 0.008),
  ('C[C@](N)(CO)C(=O)Nc1ccc(OCCc2ccc(-c3cccs3)cc2)cc1', 0.15),
  ('C[C@](N)(COc1ccccc1)C(=O)Nc1ccc(Oc2ccccc2)cc1', 0.09);
